B1: MLL5 (parent)
chain: TYLCERCQPRNLDKERAVLLQRRK

variants of: B1; experiment: protein stability index of a GFP-peptide fusion (GPS, HEK-293T) (PSI 1-6); higher = more stable; settings: c terminus: a fixed tail appended;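 also: lentivirally expressed fusions sorted by FACS into six bins by GFP to DsRed ratio, PSI derived from sequencing read proportions per bin multiplied by bin number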
experimental_readout: protein stability index
Write the number on its own, no unit after it.

These solved cases illustrate the format of a correct answer.
Input: GET /values?readout=protein stability index&item= E15R
Output: 2.34

Input: GET /values?readout=protein stability index&item= E15G
Output: 2.71

Input: GET /values?readout=protein stability index&item= L12M
Output: 3.49

Input: GET /values?readout=protein stability index&item= A17D
Output: 2.25

---
Input: GET /values?readout=protein stability index&item= K14R
Output: 2.19

Input: GET /values?readout=protein stability index&item= V18R
Output: 3.18
